assay: Dissociation constant, pKa of the compound; assay type: physicochemical
QUANTITY KIND: pKa
Please give the numeric answer without any surrounding text.

Check out these entries, answers already filled in.
Lookup: For C=C(C)[C@@H]1CC[C@]2(CNCCCN3CCS(=O)(=O)CC3)CC[C@]3(C)[C@H](CC[C@@H]4[C@@]5(C)CC=C(c6ccc(C(=O)O)cc6)C(C)(C)[C@@H]5CC[C@]43C)[C@@H]12 , what is its reported pKa?
Found: 5.4

Lookup: For C=C(C)[C@@H]1CC[C@]2(NCCN3CCOCC3)CC[C@]3(C)[C@H](CC[C@@H]4[C@@]5(C)CC=C(c6ccc(C(=O)O)cc6)C(C)(C)[C@@H]5CC[C@]43C)[C@@H]12 , what is its reported pKa?
Found: 8.2

Consider the additional compound presented here.
Lookup: For C=C(C)[C@@H]1CC[C@]2(NCCN3CCC(F)(F)CC3)CC[C@]3(C)[C@H](CC[C@@H]4[C@@]5(C)CC=C(c6ccc(C(=O)O)cc6)C(C)(C)[C@@H]5CC[C@]43C)[C@@H]12 , what is its reported pKa?
Found: 8.5

###

Below: a set of entries, each annotated with reported EC50.
tested on: Human immunodeficiency virus 1; assay: microbe, parasite or virus in culture; conditions: Human immunodeficiency virus 1, MT2
Description: Antiviral activity against wild type HIV1 infected in human MT2 cells after 4 to 5 days by dual luciferase reporter gene assay

Check out these entries, answers already filled in.
Lookup: Item C=C(C)[C@@H]1CC[C@]2(NCCN3CCN(S(=O)(=O)CC)CC3)CC[C@]3(C)[C@H](CC[C@@H]4[C@@]5(C)CC=C(c6ccc(C(=O)O)cc6)C(C)(C)[C@@H]5CC[C@]43C)[C@@H]12 with Human immunodeficiency virus 1 - EC50?
Found: 3.7 nM

Lookup: Item C=C(C)[C@@H]1CC[C@]2(C(=O)NCCN3CCS(=O)(=O)CC3)CC[C@]3(C)[C@H](CC[C@@H]4[C@@]5(C)CC=C(c6ccc(C(=O)O)cc6)C(C)(C)[C@@H]5CC[C@]43C)[C@@H]12 with Human immunodeficiency virus 1 - EC50?
Found: 2.4 nM

Lookup: Item C=C(C)[C@@H]1CC[C@]2(NCCN3CC4(C3)CN(S(C)(=O)=O)C4)CC[C@]3(C)[C@H](CC[C@@H]4[C@@]5(C)CC=C(c6ccc(C(=O)O)cc6)C(C)(C)[C@@H]5CC[C@]43C)[C@@H]12 with Human immunodeficiency virus 1 - EC50?
Found: 1.6 nM

Lookup: Item C=C(C)[C@@H]1CC[C@]2(NCCN3CCS(=N)(=O)CC3)CC[C@]3(C)[C@H](CC[C@@H]4[C@@]5(C)CC=C(c6ccc(C(=O)O)cc6)C(C)(C)[C@@H]5CC[C@]43C)[C@@H]12 with Human immunodeficiency virus 1 - EC50?
Found: 1.1 nM

Lookup: Item C=C(C)[C@@H]1CC[C@]2(C(=O)NCCCN3CCS(=O)(=O)CC3)CC[C@]3(C)[C@H](CC[C@@H]4[C@@]5(C)CC=C(c6ccc(C(=O)O)cc6)C(C)(C)[C@@H]5CC[C@]43C)[C@@H]12 with Human immunodeficiency virus 1 - EC50?
Found: 2.1 nM

Lookup: Item C=C(C)[C@@H]1CC[C@]2(NCCNC3CCS(=O)(=O)C3)CC[C@]3(C)[C@H](CC[C@@H]4[C@@]5(C)CC=C(c6ccc(C(=O)O)cc6)C(C)(C)[C@@H]5CC[C@]43C)[C@@H]12 (some centres undefined) with Human immunodeficiency virus 1 - EC50?
Found: 2.2 nM

New cases:
Lookup: Item C=C(C)[C@@H]1CC[C@]2(NCCN3CCOCC3)CC[C@]3(C)[C@H](CC[C@@H]4[C@@]5(C)CC=C(c6ccc(C(=O)O)cc6)C(C)(C)[C@@H]5CC[C@]43C)[C@@H]12 with Human immunodeficiency virus 1 - EC50?
Found: 8.3 nM

Lookup: Item C=C(C)[C@@H]1CC[C@]2(NCCN3CC4C(C3)C4NS(C)(=O)=O)CC[C@]3(C)[C@H](CC[C@@H]4[C@@]5(C)CC=C(c6ccc(C(=O)O)cc6)C(C)(C)[C@@H]5CC[C@]43C)[C@@H]12 (some centres undefined) with Human immunodeficiency virus 1 - EC50?
Found: 2.8 nM

Lookup: Item C=C(C)[C@@H]1CC[C@]2(NCCCN3CCS(=O)(=O)CC3)CC[C@]3(C)[C@H](CC[C@@H]4[C@@]5(C)CC=C(c6ccc(C(=O)O)cc6)C(C)(C)[C@@H]5CC[C@]43C)[C@@H]12 with Human immunodeficiency virus 1 - EC50?
Found: 3.5 nM

Source of measurements: ChEMBL document CHEMBL4152347
